Reported melting point values follow for various compounds

Consider the reported melting point for these compounds:
>>> result("Cc1cc(S(=O)(=O)N2c3ccccc3CC2C(=O)NCCOc2ccc(CC(=O)O)cc2)ccc1-c1cccc(C(F)(F)F)c1 (centres undefined)")
"92 °C"
>>> result("COc1ccc2c(c1)CCC1C2CCC2(C)C(NCc3ccc(O)c(OC)c3)CCC12 (centres undefined)")
"169 to 170 °C"
>>> result("CC(C)Cc1ccccc1Sc1c(O)cc(-c2cccc(-c3ccccc3)c2)oc1=O")
"187 to 188 °C"
>>> result("O=C(O)C1=Cc2cc(Br)cc(Cl)c2OC1C(F)(F)F (centres undefined)")
"221 to 222 °C"
>>> result("CCOC(=O)c1ccc(-c2nn(Cc3ccc(Cl)s3)c3ccccc23)o1")
"124 to 126 °C"

Q: melting point for "CCN(c1nc(C)cc(-c2ccccc2Cl)n1)c1c(Br)cc(N(C)C)cc1OC" ?
A: 131 to 132 °C

Q: Item Cc1ccc([C@@H]2Sc3ccccc3NC(=O)[C@@H]2CN2CCN(C)CC2)cc1 (relative stereo) has what recorded melting point?
A: 196 °C

Q: Which melting point is listed for "Cc1ncn(Nc2cccc(Cl)c2)c1C" ?
A: 146 °C

Q: // returns reported melting point for input "Nc1cccc2cnc(Cl)cc12"
A: 176 to 177 °C

----------
Listed compounds paired with reported melting point

>>> result("O=C(O)C(O)(C(F)F)C(F)F")
"72.5 to 73.5 °C"
>>> result("CC(=O)OCC1OC(Oc2nc[nH]c2C(N)=O)C(OC(C)=O)C(OC(C)=O)C1OC(C)=O (stereo not given)")
"234 to 235 °C"
>>> result("CC1C(S(=O)(=O)c2ccccc2)CCCC12OCCO2 (stereo not given)")
"76 to 77 °C"
>>> result("CCOC(=O)c1ccc2c(CC[N+](=O)[O-])c[nH]c2c1")
"124 to 127 °C"
>>> result("CNc1nc(C(C)c2ccc(-c3ccccc3)c(F)c2)c(C=O)s1 (stereo not given)")
"126 to 128 °C"
>>> result("COc1ccc(OC)c(C(=O)c2ccc(OCc3ccccc3)cc2)c1")
"111 to 113 °C"

Q: // lookup melting point for "O=C(Nc1nnn[nH]1)c1cnc2sc3ccc(Cl)cc3n2c1=O"
A: > 300 °C

Q: Entry OC(CNCCNc1ccccc1Cl)COc1cccc2[nH]ncc12 (stereo not given) : reported melting point = ?
A: 129 to 130 °C

Q: I have this compound here, "Cc1cccc(-c2nc3ccc(OCCCN4CCCC4)cc3n2Cc2ccccc2)c1" , and I need its recorded melting point.
A: 120 °C

Q: Find the recorded melting point belonging to "O=C(O)c1cccc(OCCCCCCc2cccc(OCc3ccccc3)c2OCc2ccccc2)c1" and report it.
A: 72 °C

----------
# melting point annotations

>>> result("Cn1ccnc1Sc1ccc(Nc2c(C#N)cnc3cc(/C=C/CCN4CCCCC4)ccc23)cc1Cl")
"205 to 210 °C"
>>> result("CCNC(=O)c1ccc(C=C2CC3CCC(C2)N3CCC(C(=O)N(C)C)(c2ccccc2)c2ccccc2)cc1")
"137 to 139 °C"
>>> result("Nc1ccc(O)c(CSCCO)c1")
"121 °C"
>>> result("C[C@]12Cc3ccccc3[C@H]1Nc1ccccc12 (relative stereo)")
"72 °C"
>>> result("O=C(Nc1ccc(C2=CCN(Cc3ccccc3)CC2)cc1)c1ccccc1-c1ccccc1")
"142 °C"
>>> result("CCc1ccc(Cc2c(O)nn(C(C)C)c2C)cc1")
"164 to 169 °C"
>>> result("COc1cc(F)ccc1CCN1c2nc(-c3ccncn3)cc(=O)n2CCC1(C)C")
"196 to 198 °C"
>>> result("Cc1cc(Cl)ccc1Oc1ccc([N+](=O)[O-])cc1C#N")
"144 to 146 °C"

Q: I would be grateful if you could share the reported melting point for "CCOCc1cc2c(cc1C#Cc1ccccc1)NC(=O)CC(c1cccc(C#N)c1)=N2" .
A: 229 °C

Q: What measured melting point goes with "COc1cc(OCCCCc2cn(-c3ccc(C(F)(F)F)cn3)nc2C(C)C)ccc1CCC(=O)O" ?
A: 125 to 126 °C

Q: Which melting point value belongs to "O=C(COc1cccc(C(F)(F)F)c1)N[C@@H](Cc1ccccc1)C(=O)CSCc1ccco1" ?
A: 72 to 80 °C

Q: What does the record list as melting point for "COC(=O)c1cc(N(CCBr)CCBr)c(S(C)(=O)=O)cc1[N+](=O)[O-]" ?
A: 161 to 162 °C

Q: For the compound shown here, "O=Cc1ccc(CO)cc1" , give the reported melting point.
A: 44.5 to 46 °C

Q: Look up melting point: "CCOC(=O)C(=NOCCBr)c1csc(NC=O)n1"
A: 95 to 98 °C

Q: I'd like to know its melting point. The compound in question is "COC(=O)Cc1cc(Br)c(S(=O)(=O)c2ccc(O)c(C(C)C)c2)c(Br)c1"
A: 159 to 160 °C

Q: Reported melting point for "c1ccc(Sc2c[nH]c3ncccc23)cc1" : what is it?
A: 188 to 189 °C

Q: Look up melting point for this compound: "CCCCS(=O)(=O)C(c1ccc(Cl)cc1)c1ccc(Cl)cc1"
A: 104 to 106 °C

Q: If you can, please state the reported melting point value of "O=c1[nH]sc2cc(Cl)ccc12" .
A: 271 to 272 °C

Q: Which value of melting point has been reported for O=C1[C@@H](O)[C@@H]2OCCC[C@@H]2N1Cc1ccccc1 (relative stereo) in the records?
A: 136 to 138 °C

Q: Return reported melting point; argument: COC(=O)c1ccc(CN2C(=O)CCc3c(CC4SC(=O)NC4=O)ccc(OC)c32)cc1 (stereo not given)
A: 193 to 196 °C

----------
Collected melting point values appear next to each entry.
Use °C as the unit, but write only the number.

Q: For "O=S(=O)(Nc1ccncc1)c1ccc(Br)s1" , what is its reported melting point?
A: 310

Q: Look up melting point: Cc1ccncc1-c1cncc(OC2SCC(O)C(O)C2O)c1 (stereo not given)
A: 201

----------
Measured melting point values are reported for all entries that follow.

Sample answers from the record:
>>> result("CCCCC=C1SC(=O)N(CCCCOc2cccn3ccnc23)C1=O")
"64 to 65 °C"
>>> result("CC1CC(=O)Nc2ccc(Br)cc21 (stereo unspecified)")
"190 °C"
>>> result("CSc1nc(Cl)c(Cc2ccccc2)c(N2CCCC2)n1")
"97 to 99 °C"
>>> result("CCNC(=O)Nc1ccc(C(O)(C(F)(F)F)C(F)(F)F)cc1Br")
"125 to 127 °C"
>>> result("Oc1ccc(CCN2CCC(=C3c4sccc4CCn4ccnc43)CC2)cc1")
"> 200 °C"
>>> result("Cn1nnnc1CC(=O)c1ccc(C(F)(F)F)cc1N")
"200 to 201 °C"
>>> result("O=C(O)c1cc(-n2c(-c3ccccc3)cc3c2CCCC3)ccc1O")
"209 to 211 °C"
>>> result("CNC(=O)N=C(NC(=O)Nc1ccc(Cl)cc1)OC")
"169 to 171 °C"
>>> result("CC(C)c1noc(-c2c(Cl)ccc(C(=O)O)c2Cl)n1")
"104 to 107 °C"
>>> result("CSc1cnc2c(C)c(C)sc2c1O")
"233 to 236 °C"

Shifting focus to the compound that follows.
Q: Endpoint output: melting point of "ClCc1cccc(CCl)n1" . Value?
A: 74.5 to 75.5 °C

----------
Item-by-item account of melting point

Example results:
>>> result("Cc1cc(-n2ccnc2)c2cccc(OCc3c(Cl)ccc(S(=O)(=O)N4CCC[C@H]4C(=O)NCC4CCN(Cc5ccncc5)CC4)c3Cl)c2n1")
"113 °C"
>>> result("Cc1cc2c(c(Cc3c[nH]cn3)c1)OC(C)(C)OC2")
"152 to 155 °C"
>>> result("CC(C)(C)OC(=O)N1CCC(c2ccc(N3C[C@H](CN)OC3=O)cc2F)CC1")
"136 to 137 °C"
>>> result("CCCCC(O)(Cn1ccnc1)c1ccc(Cl)cc1Cl (stereo not given)")
"78 to 80 °C"
>>> result("CCCCCc1ccc(C(O)(c2c(C)cc(C)c(C)c2OC)C(C)C)cc1 (stereo not given)")
"55 °C"

Q: What measured melting point goes with CCOC(=O)c1nnc(N2CCN(c3ccc(N4CC(CNC(C)=O)OC4=O)cc3)CC2F)s1 (stereo not given) ?
A: 228 to 230 °C

Q: # lookup: melting point of "COc1cc(CC(C#N)=CNc2ccccc2)cc(OC)c1NC=O"
A: 186 to 187 °C

Q: // returns reported melting point for input "CNNC(=O)OC(C)(C)C"
A: 50 °C

Q: Give the measured melting point of "CCOC(=O)c1cccc(-n2cc(-c3ccccc3)c3c(N)ncnc32)c1" .
A: 176 to 177 °C

Q: Item under review: "CC(=O)NCCNc1nc(Nc2ccc(Cl)cc2)ncc1[N+](=O)[O-]" . Reported melting point?
A: 224 to 226 °C

Q: For the compound shown here, "CCOC(=O)/C=C/c1oc2cccc(O)c2c1C" , give the reported melting point.
A: 180 to 182 °C

Q: What value of melting point has been recorded for this entry: "COc1ccc(C=CC(=O)NCCc2ccc(-c3ccccc3)c(S(N)(=O)=O)c2)c(OC)c1"
A: 85 °C

Q: Need melting point of "CC(=O)c1cn(Cc2ccccc2)c(=O)n(Cc2ccccc2)c1=O" , thanks.
A: 92 to 93 °C

Q: Requested field: melting point. Item: "O=C1c2ccccc2C(=O)N1CCCOc1cccc(CN2CCOCC2)c1"
A: 90 to 93 °C

Q: Field request: melting point | item: "OCCCc1cnoc1-c1ccc(-c2ccccc2)cc1"
A: 94 to 95 °C

Q: Any idea what melting point was measured for "CCc1cc(Nc2ccc([N+](=O)[O-])cc2)n2nccc2n1" ?
A: 158 to 160 °C

Q: Give the measured melting point of "COc1ccc(-c2nnc(NC3CCN(Cc4ccc(C(=O)O)cc4)CC3)c3cc(OC)ccc23)cc1" .
A: 295 °C

Q: Given "COc1ccc(-n2nc(OC)cc2-c2ccc(C#N)cc2)cc1" , state its recorded melting point.
A: 112 to 113 °C

Q: Using the record for Cc1cc2c(cc1C1=NNC(=O)CC1)NC(=O)C(C)O2 (stereo not given) , report its melting point.
A: 252 to 254 °C

Q: Query: melting point; subject: Cc1cccc(NC(=O)NC2N=C(c3ccccc3F)c3ccccc3N(Cc3ncccc3C)C2=O)c1 (racemic)
A: 216 to 217 °C
